Below: a set of entries, each annotated with reported relative viability.
Test system: ChaGo-K-1
protocol description: relative viability (nuclei count vs DMSO), 5 days (fraction); higher = more cells survive
conditions used: first compound 2 µM
measured parameter: relative viability

CN1CCN(CCOc2cc(OC3CCOCC3)c3c(Nc4c(Cl)ccc5c4OCO5)ncnc3c2)CC1 [Saracatinib] + Nc1nc2[nH]cc(CCc3ccc(C(=O)N[C@@H](CCC(=O)O)C(=O)O)cc3)c2c(=O)[nH]1 [Pemetrexed] (partner 0.2 µM)
0.269
Cc1csc(=NC2CCCCC2)n1/N=C/c1ccc(O)c(O)c1O [MIM1] + COc1cccc2cc(-c3nc([C@H]4CC[C@H](C(=O)O)CC4)n4ncnc(N)c34)[nH]c12 [OSI-027] (partner 0.5 µM)
0.535
CN1CCN(CCOc2cc(OC3CCOCC3)c3c(Nc4c(Cl)ccc5c4OCO5)ncnc3c2)CC1 [Saracatinib] + COc1cc2c(Oc3ccc(NC(=O)C4(C(=O)Nc5ccc(F)cc5)CC4)cc3F)ccnc2cc1OCCCN1CCOCC1 [Foretinib] (partner 0.25 µM)
0.874
Cc1csc(=NC2CCCCC2)n1/N=C/c1ccc(O)c(O)c1O [MIM1] + NC(=O)Nc1cc(-c2cccc(F)c2)sc1C(=O)N[C@H]1CCCNC1 [AZD7762] (partner 0.2 µM)
0.907

----------
Tested on: 201T
protocol description: relative viability (nuclei count vs DMSO), 5 days (fraction); higher = more cells survive
conditions used: first compound 0.01 µM
Reported relative viability by item:
measured parameter: relative viability

Cc1cn(-c2cc(NC(=O)c3ccc(C)c(Nc4nccc(-c5cccnc5)n4)c3)cc(C(F)(F)F)c2)cn1 [Nilotinib] + CC1(C)CCC(c2ccc(Cl)cc2)=C(CN2CCN(c3ccc(C(=O)NS(=O)(=O)c4ccc(N[C@H](CCN5CCOCC5)CSc5ccccc5)c(S(=O)(=O)C(F)(F)F)c4)cc3)CC2)C1 [Navitoclax] (partner 0.5 µM)
1.25
Cc1cn(-c2cc(NC(=O)c3ccc(C)c(Nc4nccc(-c5cccnc5)n4)c3)cc(C(F)(F)F)c2)cn1 [Nilotinib] + COc1cc2c(Oc3ccc(NC(=O)C4(C(=O)Nc5ccc(F)cc5)CC4)cc3F)ccnc2cc1OCCCN1CCOCC1 [Foretinib] (partner 0.25 µM)
1.32
Cc1cn(-c2cc(NC(=O)c3ccc(C)c(Nc4nccc(-c5cccnc5)n4)c3)cc(C(F)(F)F)c2)cn1 [Nilotinib] + O=C(c1cc(Cc2n[nH]c(=O)c3ccccc23)ccc1F)N1CCN(C(=O)C2CC2)CC1 [Olaparib] (partner 8 µM)
0.959
Cc1cn(-c2cc(NC(=O)c3ccc(C)c(Nc4nccc(-c5cccnc5)n4)c3)cc(C(F)(F)F)c2)cn1 [Nilotinib] + O=C(CCCCCCC(=O)Nc1ccccc1)NO [Vorinostat] (partner 1 µM)
1.22

----------
Recorded relative viability by entry
Test system: NCI-H2405
protocol description: relative viability (nuclei count vs DMSO), 5 days (fraction); higher = more cells survive
conditions used: first compound 0.2 µM
measured parameter: relative viability

CCNC(=O)c1noc(-c2cc(C(C)C)c(O)cc2O)c1-c1ccc(CN2CCOCC2)cc1 [Luminespib] + C[C@]1(O)C[C@@H](c2nc(-c3ccc4ccc(-c5ccccc5)nc4c3)c3c(N)nccn32)C1 [Linsitinib] (partner 1 µM)
0.182
CN1CCN(CCOc2cc(OC3CCOCC3)c3c(Nc4c(Cl)ccc5c4OCO5)ncnc3c2)CC1 [Saracatinib] + CS(=O)(=O)N1CCN(Cc2cc3nc(-c4cccc5[nH]ncc45)nc(N4CCOCC4)c3s2)CC1 [Pictilisib] (partner 1 µM)
0.366
CN1CCN(CCOc2cc(OC3CCOCC3)c3c(Nc4c(Cl)ccc5c4OCO5)ncnc3c2)CC1 [Saracatinib] + NC(=O)Nc1cc(-c2cccc(F)c2)sc1C(=O)N[C@H]1CCCNC1 [AZD7762] (partner 0.2 µM)
0.594
CCNC(=O)c1noc(-c2cc(C(C)C)c(O)cc2O)c1-c1ccc(CN2CCOCC2)cc1 [Luminespib] + Nc1ncn([C@H]2C[C@H](O)[C@@H](CO)O2)c(=O)n1 [Decitabine] (partner 2 µM)
0.191
Cc1csc(=NC2CCCCC2)n1/N=C/c1ccc(O)c(O)c1O [MIM1] + C[C@@H](Oc1cc(-c2cnn(C3CCNCC3)c2)cnc1N)c1c(Cl)ccc(F)c1Cl [Crizotinib] (partner 1 µM)
0.883

----------
Tested on: A-427
protocol description: relative viability (nuclei count vs DMSO), 5 days (fraction); higher = more cells survive
conditions used: first compound 0.2 µM
Measured relative viability determines class: low group (below 0.3), middle group (0.3 to below 0.8), high group (0.8 or more)

CCNC(=O)c1noc(-c2cc(C(C)C)c(O)cc2O)c1-c1ccc(CN2CCOCC2)cc1 [Luminespib] + Nc1nc2[nH]cc(CCc3ccc(C(=O)N[C@@H](CCC(=O)O)C(=O)O)cc3)c2c(=O)[nH]1 [Pemetrexed] (partner 0.2 µM)
low group
Cc1csc(=NC2CCCCC2)n1/N=C/c1ccc(O)c(O)c1O [MIM1] + Cc1nc(Nc2ncc(C(=O)Nc3c(C)cccc3Cl)s2)cc(N2CCN(CCO)CC2)n1 [Dasatinib] (partner 0.075 µM)
middle group
Cc1csc(=NC2CCCCC2)n1/N=C/c1ccc(O)c(O)c1O [MIM1] + Cc1nc(NC(=O)N2CCC[C@H]2C(N)=O)sc1-c1ccnc(C(C)(C)C(F)(F)F)c1 [Alpelisib] (partner 2 µM)
high group
CN1CCN(CCOc2cc(OC3CCOCC3)c3c(Nc4c(Cl)ccc5c4OCO5)ncnc3c2)CC1 [Saracatinib] + Cc1nc(NC(=O)N2CCC[C@H]2C(N)=O)sc1-c1ccnc(C(C)(C)C(F)(F)F)c1 [Alpelisib] (partner 2 µM)
high group
CN1CCN(CCOc2cc(OC3CCOCC3)c3c(Nc4c(Cl)ccc5c4OCO5)ncnc3c2)CC1 [Saracatinib] + CCNC(=O)c1noc(-c2cc(C(C)C)c(O)cc2O)c1-c1ccc(CN2CCOCC2)cc1 [Luminespib] (partner 0.01 µM)
middle group
CN1CCN(CCOc2cc(OC3CCOCC3)c3c(Nc4c(Cl)ccc5c4OCO5)ncnc3c2)CC1 [Saracatinib] + O=C(CCCCCCC(=O)Nc1ccccc1)NO [Vorinostat] (partner 1 µM)
high group
CCNC(=O)c1noc(-c2cc(C(C)C)c(O)cc2O)c1-c1ccc(CN2CCOCC2)cc1 [Luminespib] + Cc1cc(Nc2cc(N3CCN(C)CC3)nc(Sc3ccc(NC(=O)C4CC4)cc3)n2)n[nH]1 [Tozasertib] (partner 0.1 µM)
low group
CCNC(=O)c1noc(-c2cc(C(C)C)c(O)cc2O)c1-c1ccc(CN2CCOCC2)cc1 [Luminespib] + N=C(N)NC(=N)NCCc1ccccc1 [Phenformin] (partner 250 µM)
low group
CN1CCN(CCOc2cc(OC3CCOCC3)c3c(Nc4c(Cl)ccc5c4OCO5)ncnc3c2)CC1 [Saracatinib] + CC(=O)c1c(C)c2cnc(Nc3ccc(N4CCNCC4)cn3)nc2n(C2CCCC2)c1=O [Palbociclib] (partner 0.5 µM)
middle group
CCNC(=O)c1noc(-c2cc(C(C)C)c(O)cc2O)c1-c1ccc(CN2CCOCC2)cc1 [Luminespib] + CS(=O)(=O)N1CCN(Cc2cc3nc(-c4cccc5[nH]ncc45)nc(N4CCOCC4)c3s2)CC1 [Pictilisib] (partner 1 µM)
middle group

----------
Test system: LK-2
protocol description: relative viability (nuclei count vs DMSO), 5 days (fraction); higher = more cells survive
conditions used: first compound 0.253 µM
hey, just use Met if measured relative viability is less than 0.6, otherwise Not met

Nc1cccc2c1CN(C1CCC(=O)NC1=O)C2=O (stereo unspecified) [Lenalidomide] + C[C@@H](Oc1cc(-c2cnn(C3CCNCC3)c2)cnc1N)c1c(Cl)ccc(F)c1Cl [Crizotinib] (partner 1 µM)
Met
Nc1cccc2c1CN(C1CCC(=O)NC1=O)C2=O (stereo unspecified) [Lenalidomide] + CC1(C)CCC(c2ccc(Cl)cc2)=C(CN2CCN(c3ccc(C(=O)NS(=O)(=O)c4ccc(N[C@H](CCN5CCOCC5)CSc5ccccc5)c(S(=O)(=O)C(F)(F)F)c4)cc3)CC2)C1 [Navitoclax] (partner 0.5 µM)
Not met
Nc1cccc2c1CN(C1CCC(=O)NC1=O)C2=O (stereo unspecified) [Lenalidomide] + COc1cc2c(Oc3ccc(NC(=O)C4(C(=O)Nc5ccc(F)cc5)CC4)cc3F)ccnc2cc1OCCCN1CCOCC1 [Foretinib] (partner 0.25 µM)
Not met
Nc1cccc2c1CN(C1CCC(=O)NC1=O)C2=O (stereo unspecified) [Lenalidomide] + NC(=O)Nc1cc(-c2cccc(F)c2)sc1C(=O)N[C@H]1CCCNC1 [AZD7762] (partner 0.2 µM)
Met
Nc1cccc2c1CN(C1CCC(=O)NC1=O)C2=O (stereo unspecified) [Lenalidomide] + Cc1nc(Nc2ncc(C(=O)Nc3c(C)cccc3Cl)s2)cc(N2CCN(CCO)CC2)n1 [Dasatinib] (partner 0.075 µM)
Met

----------
Recorded relative viability, one value per entry.
System: PC-3 [JPC-3]
protocol description: relative viability (nuclei count vs DMSO), 5 days (fraction); higher = more cells survive
conditions used: first compound 0.03162 µM
measured parameter: relative viability

Cc1cn(-c2cc(NC(=O)c3ccc(C)c(Nc4nccc(-c5cccnc5)n4)c3)cc(C(F)(F)F)c2)cn1 [Nilotinib] + Cc1cc(Nc2cc(N3CCN(C)CC3)nc(Sc3ccc(NC(=O)C4CC4)cc3)n2)n[nH]1 [Tozasertib] (partner 0.1 µM)
0.621
Cc1cn(-c2cc(NC(=O)c3ccc(C)c(Nc4nccc(-c5cccnc5)n4)c3)cc(C(F)(F)F)c2)cn1 [Nilotinib] + CS(=O)(=O)CCNCc1ccc(-c2ccc3ncnc(Nc4ccc(OCc5cccc(F)c5)c(Cl)c4)c3c2)o1 [Lapatinib] (partner 2 µM)
0.542
Cc1cn(-c2cc(NC(=O)c3ccc(C)c(Nc4nccc(-c5cccnc5)n4)c3)cc(C(F)(F)F)c2)cn1 [Nilotinib] + CS(=O)(=O)N1CCN(Cc2cc3nc(-c4cccc5[nH]ncc45)nc(N4CCOCC4)c3s2)CC1 [Pictilisib] (partner 1 µM)
0.747
Cc1cn(-c2cc(NC(=O)c3ccc(C)c(Nc4nccc(-c5cccnc5)n4)c3)cc(C(F)(F)F)c2)cn1 [Nilotinib] + CC(C)C[C@H](NC(=O)[C@H](Cc1ccccc1)NC(=O)c1cnccn1)B(O)O [Bortezomib] (partner 0.002 µM)
0.707
Cc1cn(-c2cc(NC(=O)c3ccc(C)c(Nc4nccc(-c5cccnc5)n4)c3)cc(C(F)(F)F)c2)cn1 [Nilotinib] + CC1(C)CCC(c2ccc(Cl)cc2)=C(CN2CCN(c3ccc(C(=O)NS(=O)(=O)c4ccc(N[C@H](CCN5CCOCC5)CSc5ccccc5)c(S(=O)(=O)C(F)(F)F)c4)cc3)CC2)C1 [Navitoclax] (partner 0.5 µM)
0.666
